pIC50: −log10 of the molar value.
Kindly find below pIC50 information for PIK3CB (Human) (UniProt P42338) taken from the literature.

# example entries with known answers
O=C(c1cnc2ccc(-c3ccc4c(Nc5ccccc5)nsc4c3)cn12)N1CCOCC1 ... < 5.00
Cc1ccccc1-n1c(Cn2nc(Cl)c3c(N)ncnc32)nc2nccc(C)c2c1=O ... < 5.00
Cc1cccc2cc([C@H](C)Nc3ncnc4[nH]cnc34)n(-c3ccccc3)c(=O)c12 ... < 5.00
Nc1cc(-c2cc(-c3nnc[nH]3)c3nc(CC4CC4)n(-c4ccnc5c(F)ccc(F)c45)c3c2)ccn1 ... 7.89
Nc1nc2cc(-c3ccc4ncc(N5CCCC5)nc4c3)ccc2o1 ... > 6.00

Item: Cn1cc(-c2nc3[nH]c(C(=O)N4CCN(C(C)(C)C(N)=O)CC4)nc3c(N3CCOCC3)c2F)cn1 Test system: PIK3CB (Human) (UniProt P42338) Read-out: pIC50 Value: ?
< 5.00

Item: Nc1nc2cc(-c3ccc4ncc(C(=O)N5CC[C@@H](F)C5)n4c3)ccc2o1 Test system: PIK3CB (Human) (UniProt P42338) Read-out: pIC50 Value: ?
< 5.00

Item: C[C@H](Nc1ncnc2scnc12)c1cc2cccc(-c3cnc(OCc4ccccc4)nc3)c2c(=O)n1-c1ccccc1 Test system: PIK3CB (Human) (UniProt P42338) Read-out: pIC50 Value: ?
5.00 to 6.00

Item: CN1CCN(c2cnc3ccc(-c4ccc5oc(N)nc5c4)nc3n2)CC1 Test system: PIK3CB (Human) (UniProt P42338) Read-out: pIC50 Value: ?
> 6.00

Item: Cc1ccccc1-n1c(Cn2nc(CC#N)c3c(N)ncnc32)cc2cccc(C)c2c1=O Test system: PIK3CB (Human) (UniProt P42338) Read-out: pIC50 Value: ?
< 5.00

Item: Nc1nc2cc(-c3ccc4ncc(N5CC(N6CCNC(=O)C6)C5)nc4c3)ccc2o1 Test system: PIK3CB (Human) (UniProt P42338) Read-out: pIC50 Value: ?
> 6.00

Item: C[C@H](Nc1ccc2c(c1)OCCn1cc(N3C(=O)SC[C@H]3CC#N)nc1-2)C(N)=O Test system: PIK3CB (Human) (UniProt P42338) Read-out: pIC50 Value: ?
6.39

Item: N#CCc1ccc(Nc2ncnc3ccc(-c4ccncc4)cc23)cc1 Test system: PIK3CB (Human) (UniProt P42338) Read-out: pIC50 Value: ?
< 5.00

Item: Cc1cccc2cc(Cn3nc(-c4ccc5oc(N)nc5c4)c4c(N)ncnc43)n(-c3ccccc3)c(=O)c12 Test system: PIK3CB (Human) (UniProt P42338) Read-out: pIC50 Value: ?
> 5.00

Item: COc1ccc(-c2cnc(N)c(C(=O)N[C@@H](C)c3cc4cccc(Cl)c4c(=O)n3-c3ccccc3)n2)cc1OC Test system: PIK3CB (Human) (UniProt P42338) Read-out: pIC50 Value: ?
5.00 to 6.00

Item: Cc1ccc(NS(C)(=O)=O)cc1-c1cnc(N)nc1N[C@@H](C)c1cc2cccc(Cl)c2c(=O)n1-c1ccccc1 Test system: PIK3CB (Human) (UniProt P42338) Read-out: pIC50 Value: ?
5.00 to 6.00

Item: C[C@H](Nc1nc(N)ncc1C#N)c1cc2cccc(-c3ccc(C#N)cc3)c2c(=O)n1-c1ccccc1 Test system: PIK3CB (Human) (UniProt P42338) Read-out: pIC50 Value: ?
5.00 to 6.00
